Tested on: U937 cells
PROTOCOL_DETAILS: Cell viability assay (CellTiter-Glo), U937
Assay type: cell-based
CONDITION_LABEL: Homo sapiens, U-937; U937 cells, ATP levels with CellTiter-Glo; read-out: U937 viability EC50
ATTRIBUTE_MEASURED: EC50 (µM)
Return type: number; implicit unit µM.

See these solved cases before continuing.
• Fc1cnc(NCCc2ccncc2)nc1-n1cnc2ccccc21 = 3.4
• Clc1cnc(NCCc2ccncc2)nc1-n1cnc2ccccc21 = 7
• CCn1cncc1CNc1nccc(-c2cnn(-c3cccc(OC)c3)c2)n1 = 10
• Clc1cccc(-n2cc(-c3ccnc(NCCc4c[nH]cn4)n3)cn2)c1 = 3.4
• CN(C)CCNc1nccc(-c2cnn(C)c2)n1 = 13

Param item = c1ccc2c(c1)ncn2-c1ccnc(NCCc2ccncc2)n1 ; retrieve measured EC50. 5.3

Please give the measured EC50 for this compound: c1ccc2c(c1)ncn2-c1ccnc(Nc2ccncc2)n1 10

Would you mind telling me what EC50 value was observed for FC(F)(F)c1cnc(NCCc2ccncc2)nc1-n1cnc2ccccc21 ? 10
